- System: Yap1 mRNA
- assay.details: Antisense inhibition of human Yap1 in A-431 cells by cEt gapmers, single dose (Example 3, RTS36584)
- Format: cell-based
- protocol.conditions: Table 27; Yap1 mRNA by 3-10-3 cEt gapmers targeting SEQ ID NO.: 1, and 2; percent of untreated control
Strand notation (5' to 3'): a small letter for the sugar, then the base; units joined by * are phosphorothioate-linked, units joined directly phosphodiester-linked; [ ] holds rarer units or linkages, { } end groups; capitals alone tell only the bases. k = constrained ethyl (cEt); [5mC] = 5-methylcytosine; d = 2'-deoxy (DNA)
measured.parameter: YAP1 (% UTC)
Numbers only; they are read as % UTC.

[
  {
    "substance": "1075597 (antisense kA*kT*kT*dA*dA*d[5mC]*dA*dT*dT*dT*dG*d[5mC]*d[5mC]*k[5mC]*kG*k[5mC]) [compound 1075597]",
    "measured.on": "Yap1 mRNA",
    "units.of.measure": "% UTC",
    "YAP1 (% UTC)": 47
  }
]

Asked: Dear colleague, please send me the reported YAP1 (% UTC) for 1075117 (k[5mC]*k[5mC]*kT*d[5mC]*dA*dA*dT*dA*dG*d[5mC]*dA*dA*dG*kA*k[5mC]*kA; antisense) [compound 1075117] when you can.
Given back: 48

Asked: Dear colleague, please send me the reported YAP1 (% UTC) for 1075341 (antisense kG*k[5mC]*kT*dG*dA*dA*d[5mC]*dA*dA*dT*d[5mC]*dT*d[5mC]*k[5mC]*k[5mC]*kG) [compound 1075341] when you can.
Given back: 31

Asked: Dear colleague, please send me the reported YAP1 (% UTC) for 1074541 (k[5mC]*kA*k[5mC]*dT*dA*dT*d[5mC]*d[5mC]*dA*d[5mC]*dA*dG*dT*kA*kA*kT; antisense) [compound 1074541] when you can.
Given back: 23

Asked: Dear colleague, please send me the reported YAP1 (% UTC) for 1075469 (antisense kT*kG*kA*dT*dA*dT*dA*dA*dT*dG*dA*d[5mC]*d[5mC]*kA*kA*kG) [compound 1075469] when you can.
Given back: 25

Asked: Dear colleague, please send me the reported YAP1 (% UTC) for 1074605 (DNA kT*k[5mC]*kA*dA*d[5mC]*dT*dA*d[5mC]*d[5mC]*dA*dA*dT*dA*kT*kA*k[5mC]) [compound 1074605] when you can.
Given back: 20

Asked: Dear colleague, please send me the reported YAP1 (% UTC) for 1074221 (antisense kG*kA*kA*dT*dG*dA*dG*d[5mC]*dT*d[5mC]*dG*dA*dA*k[5mC]*kA*kT) [compound 1074221] when you can.
Given back: 6

Asked: Dear colleague, please send me the reported YAP1 (% UTC) for 1074765 (k[5mC]*kA*kA*dT*dG*d[5mC]*dT*dA*d[5mC]*d[5mC]*d[5mC]*dA*dA*kT*kA*k[5mC]; antisense) [compound 1074765] when you can.
Given back: 34

Asked: Dear colleague, please send me the reported YAP1 (% UTC) for 1076365 (antisense kT*kA*kA*dG*dA*dA*dG*dG*dG*d[5mC]*d[5mC]*dA*dA*kT*kG*kG) [compound 1076365] when you can.
Given back: 15

Asked: Dear colleague, please send me the reported YAP1 (% UTC) for 1075725 (kA*kT*k[5mC]*d[5mC]*dT*dA*dT*d[5mC]*dT*dG*dT*d[5mC]*dA*kG*kT*kT; antisense) [compound 1075725] when you can.
Given back: 18

Asked: Dear colleague, please send me the reported YAP1 (% UTC) for 1074573 (DNA kA*kT*kT*dA*dT*dG*dA*dA*d[5mC]*d[5mC]*dT*dA*d[5mC]*kT*k[5mC]*kA) [compound 1074573] when you can.
Given back: 14

----------
Reported values of TG for individual entries
- assay.details: Cynomolgus monkey tolerability, kidney and liver function markers (Example 34)
- protocol.conditions: cynomolgus monkeys, 35 mg/kg subcutaneously, day 44

Examples with their reported TG follow.
[
  {
    "substance": "1198728 (TATTAGAGTATGTGGC; modified gapmer, further chemistry not given here) [compound 1198728]",
    "TG": "24 mg/dL"
  },
  {
    "substance": "1076453 (GTAATATTGCAATCTG; 3-10-3 cEt gapmer, further chemistry not given here) [compound 1076453]",
    "TG": "29 mg/dL"
  }
]

For the next question, use this substance.
Asked: Dear colleague, please send me the reported TG for 1198831 (CACTTTTACATTAGGA; chemically modified gapmer, further chemistry not given here) [compound 1198831] when you can.
Given back: 22 mg/dL

----------
- System: Yap1 mRNA
- assay.details: Antisense inhibition of human Yap1 in A-431 cells by cEt gapmers, single dose (Example 3, RTS36584)
- Format: cell-based
- protocol.conditions: Table 9; A-431 cells, 5,000 cells per well, free uptake, 2,000 nM, approximately 48 hours; RTS36584; normalized to RIBOGREEN; Yap1 mRNA relative to untreated control cells
Strand notation (5' to 3'): a small letter for the sugar, then the base; units joined by * are phosphorothioate-linked, units joined directly phosphodiester-linked; [ ] holds rarer units or linkages, { } end groups; capitals alone tell only the bases. k = constrained ethyl (cEt); [5mC] = 5-methylcytosine; d = 2'-deoxy (DNA)
measured.parameter: YAP1 (% UTC)
Numbers only; they are read as % UTC.

Examples with their reported YAP1 (% UTC) follow.
[
  {
    "substance": "958661 (kT*kG*k[5mC]*d[5mC]*dG*dT*dT*dG*dG*d[5mC]*d[5mC]*d[5mC]*d[5mC]*kT*k[5mC]*k[5mC]; antisense) [Compound 958661]",
    "units.of.measure": "% UTC",
    "val": 120
  },
  {
    "substance": "958686 (antisense k[5mC]*kG*k[5mC]*dA*dA*dT*dA*dT*dA*dG*dT*d[5mC]*dT*kA*kT*kA) [Compound 958686]",
    "units.of.measure": "% UTC",
    "val": 4
  },
  {
    "substance": "958446 (antisense k[5mC]*k[5mC]*kT*dG*dA*d[5mC]*d[5mC]*d[5mC]*dA*dG*dG*d[5mC]*dG*kA*kG*k[5mC]) [Compound 958446]",
    "units.of.measure": "% UTC",
    "val": 70
  },
  {
    "substance": "958696 (antisense kG*k[5mC]*kA*dT*dA*d[5mC]*dT*dA*d[5mC]*dA*d[5mC]*dT*dA*kT*kA*kA) [Compound 958696]",
    "units.of.measure": "% UTC",
    "val": 56
  },
  {
    "substance": "958556 (k[5mC]*kA*kA*d[5mC]*d[5mC]*dA*dA*d[5mC]*dT*dA*dT*dT*dA*k[5mC]*kT*kT; antisense) [Compound 958556]",
    "units.of.measure": "% UTC",
    "val": 10
  }
]

Asked: Dear colleague, please send me the reported YAP1 (% UTC) for 958471 (antisense k[5mC]*kT*kT*dA*dG*dA*dT*d[5mC]*d[5mC]*dT*dT*d[5mC]*dA*k[5mC]*kA*kG) [Compound 958471] when you can.
Given back: 14

Asked: Dear colleague, please send me the reported YAP1 (% UTC) for 958576 (kG*kT*kG*dG*d[5mC]*dT*dA*d[5mC]*dT*dG*dG*d[5mC]*dA*kA*kA*kT; antisense) [Compound 958576] when you can.
Given back: 53

Asked: Dear colleague, please send me the reported YAP1 (% UTC) for 958626 (antisense kT*kG*kG*dG*d[5mC]*dA*dA*dA*dG*dT*dT*d[5mC]*d[5mC]*kT*kA*kT) [Compound 958626] when you can.
Given back: 158

----------
Reported values of YAP1 (% UTC) for individual entries
- Tested on: Yap1 mRNA
- assay.details: Antisense inhibition of human Yap1 in A-431 cells by cEt gapmers, single dose (Example 3, RTS36584)
- Type: cell-based
- protocol.conditions: Table 12; A-431 cells, 5,000 cells per well, free uptake, 2,000 nM modified oligonucleotide, approx. 48 hours; RTS36584; normalized to RIBOGREEN; Yap1 mRNA relative to untreated control cells
Strand notation (5' to 3'): a small letter for the sugar, then the base; units joined by * are phosphorothioate-linked, units joined directly phosphodiester-linked; [ ] holds rarer units or linkages, { } end groups; capitals alone tell only the bases. k = constrained ethyl (cEt); [5mC] = 5-methylcytosine; d = 2'-deoxy (DNA)
Numbers only; they are read as % UTC.

Examples with their reported YAP1 (% UTC) follow.
[
  {
    "substance": "958804 (antisense kA*kG*kA*dT*dA*dA*dT*d[5mC]*dA*dT*d[5mC]*d[5mC]*dT*k[5mC]*kA*kG) [Compound 958804]",
    "YAP1 (% UTC)": 17
  },
  {
    "substance": "958604 (kA*k[5mC]*kG*d[5mC]*dT*dA*dG*dA*dA*dA*dA*dG*dT*kG*kT*kT; antisense) [Compound 958604]",
    "YAP1 (% UTC)": 94
  },
  {
    "substance": "958744 (antisense kG*k[5mC]*kA*dT*dA*d[5mC]*dT*dG*dG*dT*dG*d[5mC]*d[5mC]*k[5mC]*k[5mC]*kA) [Compound 958744]",
    "YAP1 (% UTC)": 45
  },
  {
    "substance": "958709 (antisense kT*k[5mC]*kA*dA*dT*d[5mC]*dT*dA*dT*dG*dA*dG*dA*k[5mC]*k[5mC]*k[5mC]) [Compound 958709]",
    "YAP1 (% UTC)": 57
  }
]

Asked: Dear colleague, please send me the reported YAP1 (% UTC) for 958439 (antisense kG*k[5mC]*kG*d[5mC]*d[5mC]*d[5mC]*d[5mC]*dG*dG*d[5mC]*dT*d[5mC]*d[5mC]*kA*k[5mC]*kT) [Compound 958439] when you can.
Given back: 77

Asked: Dear colleague, please send me the reported YAP1 (% UTC) for 958569 (kA*kG*k[5mC]*d[5mC]*dT*dT*dA*dG*dA*dG*dT*d[5mC]*dA*kA*kT*kT; antisense) [Compound 958569] when you can.
Given back: 3

Asked: Dear colleague, please send me the reported YAP1 (% UTC) for 958729 (antisense kG*kT*k[5mC]*dA*dG*dT*dT*dA*dT*d[5mC]*d[5mC]*dT*dA*kT*k[5mC]*kT) [Compound 958729] when you can.
Given back: 4

Asked: Dear colleague, please send me the reported YAP1 (% UTC) for 958559 (kA*kA*kT*dT*d[5mC]*dA*d[5mC]*dA*dA*d[5mC]*d[5mC]*dA*dA*k[5mC]*kT*kA; antisense) [Compound 958559] when you can.
Given back: 17

Asked: Dear colleague, please send me the reported YAP1 (% UTC) for 958679 (kG*kT*kA*dA*d[5mC]*dT*dG*d[5mC]*d[5mC]*dA*d[5mC]*dA*dG*kT*kT*kA; antisense) [Compound 958679] when you can.
Given back: 77

Asked: Dear colleague, please send me the reported YAP1 (% UTC) for 958629 (antisense k[5mC]*k[5mC]*k[5mC]*dG*dA*dG*dT*dG*dG*dG*d[5mC]*dT*dA*kA*k[5mC]*kT) [Compound 958629] when you can.
Given back: 128

Asked: Dear colleague, please send me the reported YAP1 (% UTC) for 958544 (kG*k[5mC]*kT*dA*dA*dA*dT*dT*d[5mC]*dA*dA*d[5mC]*dT*kA*k[5mC]*k[5mC]; antisense) [Compound 958544] when you can.
Given back: 8

Asked: Dear colleague, please send me the reported YAP1 (% UTC) for 958499 (kA*kT*kT*dA*dG*dA*dG*dT*dA*dT*dG*dT*dG*kG*k[5mC]*kA) [Compound 958499] when you can.
Given back: 1

Asked: Dear colleague, please send me the reported YAP1 (% UTC) for 958479 (antisense kA*kT*kG*dG*dA*dA*dA*dT*dT*dT*d[5mC]*d[5mC]*dG*kG*kT*kG) [Compound 958479] when you can.
Given back: 15
